pIC50 by entry:
Biological target: NSP14 (Severe acute respiratory syndrome coronavirus 2)
Assay: NSP14 MTase inhibition assay at 37° C. (MTase-Glo SAH detection)
Type: biochemical, SARS-CoV-2
Details: 37° C., 0.3 nM NSP14, 2.5 μM SAM, 2.5 μM GpppA RNA; read-out: Nsp14 Mtase Inh. IC50
pIC50: −log10 of the molar value.
Parameter Measured: pIC50

INSERT INTO results (molecule, parameter_measured, sign, quantitative_result) VALUES
  ('Cc1c(S(=O)(=O)c2ccc3[nH]ncc3c2)cc(C(=O)NC2CCc3ncccc32)n1C (centres unmarked)', 'pIC50', '=', 8.25),
  ('COc1nccc(F)c1CNC(=O)c1cc(S(=O)(=O)c2ccc3[nH]ncc3c2)c(C)n1C', 'pIC50', '>', 9.82),
  ('O=C(NCc1c(F)ccc2ncn(C3CC3)c12)c1cc(S(=O)(=O)c2cc(F)c3[nH]ncc3c2)c2n1CCC2', 'pIC50', '=', 9.68),
  ('Cc1c(S(=O)(=O)c2ccc3[nH]ncc3c2)cc(C(=O)NC2CCc3c(F)ccc(F)c32)n1C (racemic)', 'pIC50', '=', 9.02),
  ('Cc1c(S(=O)(=O)c2ccc3[nH]ncc3c2)cc(C(=O)NCc2ccc(F)c3cnn(C)c23)n1C', 'pIC50', '=', 9.39),
  ('Cc1c(S(=O)(=O)c2ccc3[nH]ncc3c2)cc(C(=O)NCc2cccc3nnn(C4CC4)c23)n1C', 'pIC50', '>', 9.82),
  ('Cc1ncoc1CNC(=O)c1cc(S(=O)(=O)c2ccc3[nH]ncc3c2)c(C)n1C', 'pIC50', '=', 7.85),
  ('Cc1c(S(=O)(=O)c2cccc(C#N)c2)cc(C(=O)NCc2c(Cl)cnn2C)n1C', 'pIC50', '=', 7.77);

----------
pIC50 by entry:
Target: NSP14 (Severe acute respiratory syndrome coronavirus 2, UniProt P0DTD1)
Assay: NSP14 MTase inhibition assay at 37° C. (MTase-Glo SAH detection)
Format: biochemical, SARS-CoV-2
Conditions: 37° C., 0.3 nM NSP14, 2.5 μM SAM, 2.5 μM GpppA RNA; read-out: Nsp14 Mtase Inh. IC50
pIC50: −log10 of the molar value.
Parameter Measured: pIC50

INSERT INTO results (compound, sign, quantitative_result) VALUES
  ('Cc1c(S(=O)(=O)c2ccc3[nH]ncc3c2)cc(C(=O)NCc2c(F)cccc2Cl)n1C', '=', 9.70),
  ('Cc1c(S(=O)(=O)c2ccc3[nH]ncc3c2)cc(C(=O)N[C@H]2CCc3c(F)ccc(F)c32)n1C (single isomer, unassigned) [B.139]', '=', 8.89),
  ('Cc1c(S(=O)(=O)c2ccc3c(cnn3C)c2)cc(C(=O)NCc2c(F)ccnc2N2CCC(C(=O)O)C2)n1C (stereo not shown)', '=', 9.82),
  ('Cc1c(S(=O)(=O)c2cc(Cl)cc(C#N)c2)cc(C(=O)NCc2c(Cl)cnn2C)n1C', '=', 8.19),
  ('Cc1c(S(=O)(=O)c2ccc3c(cnn3C)c2)cc(C(=O)NCc2cccnc2N2CCC(C(=O)O)C2)n1C (stereo not shown)', '=', 8.77),
  ('Cc1c(S(=O)(=O)c2cc(F)c3[nH]ncc3c2)cc(C(=O)NCc2c(F)ccc3ncn(C4CC4)c23)n1C', '>', 9.82),
  ('Cc1c(S(=O)(=O)c2cc(F)c3[nH]nc(F)c3c2)cc(C(=O)NCc2c(F)ccc3cnn(C4CC4)c23)n1C', '=', 9.82);

----------
pIC50 by entry:
Molecular target: NSP14 (Severe acute respiratory syndrome coronavirus 2, UniProt P0DTD1)
Assay: NSP14 MTase inhibition assay at 37° C. (MTase-Glo SAH detection)
Assay type: biochemical, SARS-CoV-2
Settings: 0.3 nM NSP14, 2.5 μM SAM, 2.5 μM GpppA RNA, 45 min at 37° C.; read-out: Nsp14 Mtase Inh. IC50
pIC50: −log10 of the molar value.
Parameter Measured: pIC50

INSERT INTO measurements (compound, parameter_measured, quantitative_result) VALUES
  ('Cc1c(S(=O)(=O)c2ccccc2)cc(C(=O)NCc2c(F)ccc3occc23)n1C', 'pIC50', 7.66),
  ('Cc1c(S(=O)(=NCC2CC2)c2ccc3[nH]ncc3c2)cc(C(=O)N[C@@H]2CCN(c3ncc(F)cn3)C2)n1C (stereo partly shown)', 'pIC50', 8.06),
  ('Cc1c(S(=O)(=O)c2ccc3[nH]ncc3c2)cc(C(=O)N[C@@H]2CCN(c3ncccc3C(F)(F)F)C2)n1C', 'pIC50', 8.82),
  ('Cc1c(S(=O)(=O)c2ccc3[nH]ncc3c2)cc(C(=O)N[C@@H]2CCN(Cc3ccc(C#N)cc3)C2)n1C', 'pIC50', 7.59);

----------
Target: NSP14 (Severe acute respiratory syndrome coronavirus 2, UniProt P0DTD1)
Experiment: NSP14 MTase inhibition assay at 37° C. (MTase-Glo SAH detection)
Type: biochemical, SARS-CoV-2
Conditions: 37° C., 0.3 nM NSP14, 2.5 μM SAM, 2.5 μM GpppA RNA; read-out: Nsp14 Mtase Inh. IC50
Param label: returns 1 when IC50 < 3 nM, returns -1 otherwise, including exact equality.

INSERT INTO results (molecule, classification) VALUES
  ('Cc1c(S(=O)(=O)c2ccc3[nH]ncc3c2)cc(C(=O)N[C@H](C)c2c(F)cccc2F)n1C (single isomer, unassigned) [B.65]', -1),
  ('Cc1c(S(=O)(=O)c2cc(F)c3[nH]ncc3c2)cc(C(=O)N[C@@H](C)c2cccc3cnn(C4CC4)c23)n1C (single isomer, unassigned) [B.88]', -1),
  ('Cc1c(S(=O)(=O)c2ccc3[nH]ncc3c2)cc(C(=O)NCc2c(F)ccc3c2N(C)C(=O)C3(F)F)n1C [B.74]', 1),
  ('Cc1c(S(=O)(=O)c2ccc3[nH]ncc3c2)cc(C(=O)NCc2c(F)cc(CN(C)C)cc2F)n1C [B.68]', -1),
  ('Cc1c(S(=O)(=O)c2ccc3[nH]ncc3c2)cc(C(=O)NCc2c[nH]c(=O)c3cccnc23)n1C [B.159]', 1),
  ('Cc1c(S(=O)(=O)c2cccc(C#N)c2)cc(C(=O)NCc2cccc3ncn(C4CC4)c23)n1C [B.3]', -1),
  ('Cc1c(S(=O)(=O)c2ccc3[nH]nc(F)c3c2)cc(C(=O)NCc2c[nH]c(=O)c3cccnc23)n1C [B.175]', -1);

----------
Biological target: NSP14 (Severe acute respiratory syndrome coronavirus 2, UniProt P0DTD1)
Assay: NSP14 MTase inhibition assay at 37° C. (MTase-Glo SAH detection)
Format: biochemical, SARS-CoV-2
Conditions: 0.3 nM NSP14, 2.5 μM SAM, 2.5 μM GpppA RNA, 45 min at 37° C.; read-out: Nsp14 Mtase Inh. IC50
pIC50: −log10 of the molar value.
pIC50 by entry:
Parameter Measured: pIC50

INSERT INTO assay_data (compound, sign, quantitative_result) VALUES
  ('Cc1c(S(=O)(=O)c2ccc3[nH]ncc3c2)cc(C(=O)NCc2cccn3nccc23)n1C', '=', 8.14),
  ('Cc1c(S(=O)(=O)c2ccc3occc3c2)cc(C(=O)NCc2c(F)ccc3occc23)n1C', '=', 8.11),
  ('COc1ncc(N2CC[C@@H](NC(=O)c3cc(S(=O)(=O)c4ccc5[nH]ncc5c4)c(C)n3C)C2)cn1', '=', 9.64),
  ('Cc1c(S(=O)(=O)c2ccc3[nH]ncc3c2)cc(C(=O)N[C@@H]2CCN(c3ncc(C(F)(F)F)cn3)C2)n1C', '=', 9.52),
  ('Cc1c(S(=O)(=O)c2ccc3[nH]nc(F)c3c2)cc(C(=O)N[C@@H]2CCN(c3ccnnc3)C2)n1C', '=', 9.28),
  ('Cc1c(S(=O)(=O)c2ccc3[nH]ncc3c2)cc(C(=O)N[C@@H]2CCN(c3cc(C(F)(F)F)ccn3)C2)n1C', '=', 9.24),
  ('Cc1c(S(=O)(=O)c2ccc3[nH]ncc3c2)cc(C(=O)N[C@@H]2CCN(c3ncc(F)cn3)C2)n1CCO', '>', 9.82),
  ('Cc1c(S(=O)(=O)c2ccc3[nH]ncc3c2)cc(C(=O)NC2(CO)CCN(c3ncc(F)cn3)C2)n1C (single isomer, unassigned) [A.116]', '=', 7.36),
  ('CC(=O)Nc1ccc(S(=O)(=O)c2cc(C(=O)NCc3c(F)ccc4occc34)n(C)c2C)cc1', '=', 6.61),
  ('Cc1c(S(=O)(=O)c2ccc3[nH]ncc3c2)cc(C(=O)N[C@@H]2CCN(c3cccnn3)C2)n1C', '=', 9.42),
  ('Cc1c(S(=O)(=O)c2ccc3[nH]ncc3c2)cc(C(=O)N[C@@H]2CCN(c3ccc(C(F)(F)F)nn3)C2)n1C', '=', 9.36),
  ('Cc1c(S(=O)(=O)c2ccc3[nH]ncc3c2)cc(C(=O)N[C@@H]2CCN(c3cc(C(F)(F)F)ncn3)C2)n1C', '=', 9.82),
  ('Cc1c(S(=O)(=O)c2ccc3[nH]ncc3c2)cc(C(=O)N[C@@H]2CCN(c3ncc(F)cn3)C2)n1C', '=', 9.77),
  ('Cc1c(S(=O)(=O)c2ccc3[nH]ncc3c2)cc(C(=O)N[C@@H]2CCN(c3ccc(F)cc3)C2)n1C', '=', 9.24),
  ('Cc1c(S(=O)(=O)c2ccc3[nH]ncc3c2)cc(C(=O)N[C@@H]2CCN(c3nccc(C(F)F)n3)C2)n1C', '=', 9.52);
